METHOD: Solubility in aqueous media
Format: physicochemical
CONDITIONS_USED: pH 9.6, thermodynamic from solid; medium water; pH of the saturated solution 9.6
RECORDED_ENDPOINT: solubility
Give the figure together with its unit, number first.

stdin: Can you share its solubility? I mean this molecule: CC[C@@H]1C(=O)N(C)c2cnc(Nc3ccc(C(=O)N[C@H]4CC[C@H](N5CCN(CC6CC6)CC5)CC4)cc3OC)nc2N1C(C)C [formula (I)]
stdout: 110 µg/mL

====

METHOD: Solubility in aqueous media
Assay type: physicochemical
CONDITIONS_USED: phosphate buffer, aqueous buffer, thermodynamic from solid; Phosphate pH 6.0; pH of the saturated solution 6.5
RECORDED_ENDPOINT: solubility

stdin: Can you share its solubility? I mean this molecule: CC[C@@H]1C(=O)N(C)c2cnc(Nc3ccc(C(=O)N[C@H]4CC[C@H](N5CCN(CC6CC6)CC5)CC4)cc3OC)nc2N1C(C)C
stdout: > 10000 µg/mL
